Listed here are molecules together with their documented IC50.
# measurement.target: human TLR9 (Homo sapiens (Human))
# Sequence (Q9NR96 26-1032): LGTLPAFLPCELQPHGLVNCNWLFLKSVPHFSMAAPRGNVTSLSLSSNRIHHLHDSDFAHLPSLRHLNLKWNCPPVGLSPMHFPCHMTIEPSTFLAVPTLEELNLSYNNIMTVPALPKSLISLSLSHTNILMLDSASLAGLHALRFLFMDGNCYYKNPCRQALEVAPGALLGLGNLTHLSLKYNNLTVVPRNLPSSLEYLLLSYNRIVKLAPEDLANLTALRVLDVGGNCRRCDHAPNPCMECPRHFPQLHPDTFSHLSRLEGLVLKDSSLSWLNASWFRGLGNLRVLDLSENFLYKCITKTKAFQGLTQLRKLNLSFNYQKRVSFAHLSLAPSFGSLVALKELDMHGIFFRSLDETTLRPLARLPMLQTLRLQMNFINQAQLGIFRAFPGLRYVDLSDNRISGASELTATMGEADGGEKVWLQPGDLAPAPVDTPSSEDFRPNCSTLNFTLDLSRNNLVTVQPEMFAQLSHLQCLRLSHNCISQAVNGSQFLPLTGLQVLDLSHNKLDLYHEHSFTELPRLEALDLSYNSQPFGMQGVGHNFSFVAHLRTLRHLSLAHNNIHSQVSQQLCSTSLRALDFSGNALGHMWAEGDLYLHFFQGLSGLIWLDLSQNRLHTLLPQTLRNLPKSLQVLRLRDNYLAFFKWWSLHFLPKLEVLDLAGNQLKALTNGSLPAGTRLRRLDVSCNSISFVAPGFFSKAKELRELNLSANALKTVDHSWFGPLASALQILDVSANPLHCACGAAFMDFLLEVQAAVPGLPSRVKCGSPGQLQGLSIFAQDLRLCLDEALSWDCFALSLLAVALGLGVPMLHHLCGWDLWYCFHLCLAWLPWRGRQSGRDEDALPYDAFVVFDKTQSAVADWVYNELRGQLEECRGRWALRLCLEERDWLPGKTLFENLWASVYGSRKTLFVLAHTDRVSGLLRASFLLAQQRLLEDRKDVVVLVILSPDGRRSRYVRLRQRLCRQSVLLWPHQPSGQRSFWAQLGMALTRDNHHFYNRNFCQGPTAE
# method.notes: TLR9 inhibition reporter assay (HEK-Blue SEAP);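 also: SEAP driven by an IFN-β minimal promoter with NF-κB and AP-1 sites, read after 22 h, compounds dosed 0.05 nM–50 µM, inhibition scaled between agonist plus DMSO and reference-inhibitor wells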
# condition: read-out: TLR9 IC50; HEK-Blue cells overexpressing human TLR9, ODN2006 5 nM stimulation, SEAP reporter
Give the quantity in nM, number only.

Worked set:
Given the entry CC(C)c1c(-c2cc(CO)c3ncnn3c2)[nH]c2ccc(C3CCC(NC4COC4)CC3)nc12 (stereo not shown) [Example 220] , what IC50 was observed with human TLR9 (Homo sapiens (Human))?
1020

Given the entry `Cc1c(-c2[nH]c3ccc(N4CCN(C(=O)CNCC5CC5)CC4)nc3c2C(C)C)cn2ncnc2c1C` , what IC50 was observed with human TLR9 (Homo sapiens (Human))?
5920

Given the entry COc1cc(-c2[nH]c3ccc(C4CCC(N(C)C(C)C)CC4)nc3c2C(C)C)cn2ncnc12 (stereo not shown) [Example 168] , what IC50 was observed with human TLR9 (Homo sapiens (Human))?
658

Given the entry COc1cc(-c2[nH]c3ccc(C4CCC(N(C)CCC#N)CC4)nc3c2C(C)C)cn2ncnc12 (stereo not shown) [Example 175] , what IC50 was observed with human TLR9 (Homo sapiens (Human))?
926

Given the entry `COc1cc(-c2[nH]c3ccc(N4CCN(C5COC5)CC4)nc3c2C(C)C)cn2ncnc12` , what IC50 was observed with human TLR9 (Homo sapiens (Human))?
35000

Given the entry COc1cc(-c2[nH]c3ccc(C4CCC(N(C)C5COC5)CC4)nc3c2C(C)C)cn2ncnc12 (stereo not shown) , what IC50 was observed with human TLR9 (Homo sapiens (Human))?
5080

Given the entry CCN(C)C1CCC(c2nc3c(C(C)C)c(-c4cc(OC)c5ncnn5c4)[nH]c3cc2C)CC1 (stereo not shown) [Example 313] , what IC50 was observed with human TLR9 (Homo sapiens (Human))?
1200

Given the entry `Cc1c(-c2[nH]c3ccc(N4CC(O)C4)nc3c2C(C)C)cn2ncnc2c1C` , what IC50 was observed with human TLR9 (Homo sapiens (Human))?
44400

Given the entry `COc1cc(-c2[nH]c3ccc(N4CC(NC5CCOCC5)C4)nc3c2C(C)C)cn2ncnc12` , what IC50 was observed with human TLR9 (Homo sapiens (Human))?
2830

Given the entry COc1cc(-c2[nH]c3cc(F)c(C4CCC(NC5COC5)CC4)nc3c2C(C)C)cn2ncnc12 (stereo not shown) [Example 345] , what IC50 was observed with human TLR9 (Homo sapiens (Human))?
1680

Continuing:
Given the entry `Cc1c(-c2[nH]c3ccc(N4CCN(S(=O)(=O)CCN(C)C)CC4)nc3c2C(C)C)cn2ncnc2c1C` , what IC50 was observed with human TLR9 (Homo sapiens (Human))?
12000

Given the entry `COc1cc(-c2[nH]c3ccc(N4CC(NC(=O)CN(C)C)C4)nc3c2C(C)C)cn2ncnc12` , what IC50 was observed with human TLR9 (Homo sapiens (Human))?
1100

Given the entry `CC(C)c1c(-c2cc(CO)c3ncnn3c2)[nH]c2ccc(N3CCC(N)CC3)nc12` , what IC50 was observed with human TLR9 (Homo sapiens (Human))?
9720

Given the entry Cc1c(-c2[nH]c3ccc(C4CCC(N(C)C(C)C)CC4)nc3c2C(C)C)cn2ncnc2c1C (stereo not shown) , what IC50 was observed with human TLR9 (Homo sapiens (Human))?
2520

This collection of values is drawn from patent US10544143B2.
